testSummary: RSV HEP2-CC50-384-V2 (per Ex. V)
Assay type: cell-based
experimentalParameters: human

compound: CCCCCCCCCCCCCCCCCCOC[C@H](COP(=O)(O)OC[C@@]1(C#N)O[C@@H](c2ccc3c(N)ncnn23)[C@H](O)[C@@H]1O)OCc1cncc(C#N)c1 [Compound 66]
CC50 at 3 days: 49.1 µM

compound: CCCCCCCCCCCCCCCCCC[C@@H](COP(=O)(O)OC[C@@]1(C#N)O[C@@H](c2ccc3c(N)ncnn23)[C@H](O)[C@@H]1O)OCc1cc(Cl)cc(C#N)c1 [Compound 87]
CC50 at 3 days: > 34.8 µM

compound: CCCCCCCCCCCCCCOC[C@H](COP(=O)(O)OC[C@@]1(C#N)O[C@@H](c2ccc3c(N)ncnn23)[C@H](O)[C@@H]1O)Oc1ccc(C#N)nc1 [Compound 77]
CC50 at 3 days: > 50 µM

compound: CCCCCCCCCCCCCCCCCCCC[C@H](COP(=O)(O)OC[C@@]1(C#N)O[C@@H](c2ccc3c(N)ncnn23)[C@H](O)[C@@H]1O)Oc1cccc(C#N)c1 [Compound 51]
CC50 at 3 days: > 46.2 µM

compound: CCCCCCCCCCCCCCCCCC[C@H](COP(=O)(O)OC[C@@]1(C#N)O[C@@H](c2ccc3c(N)ncnn23)[C@H](O)[C@@H]1O)OCc1cc(F)cc(C#N)c1 [Compound 84]
CC50 at 3 days: > 50 µM

====

testSummary: RSV HEP2-CC50-384-V2 (per Ex. V)
Assay type: cell-based
experimentalParameters: human

moleculeSmiles: CCCCCCCCCCCCCCCCCCC[C@H](COP(=O)(O)OC[C@@]1(C#N)O[C@@H](c2ccc3c(N)ncnn23)[C@H](O)[C@@H]1O)OCc1cc(Cl)cc(C#N)c1
unitsText: µM
censoringQualifier: =
CC50 at 3 days: 29
--
moleculeSmiles: CCCCCCCCCCCCCCCCOC[C@@H](COP(=O)(O)OC[C@@]1(C#N)O[C@@H](c2ccc3c(N)ncnn23)[C@H](O)[C@@H]1O)OCc1cc(F)cc(C#N)c1
unitsText: µM
censoringQualifier: =
CC50 at 3 days: 36.6
--
moleculeSmiles: CCCCCCCCCCCCCCCCCCCC[C@H](COP(=O)(O)OC[C@@]1(C#N)O[C@@H](c2ccc3c(N)ncnn23)[C@H](O)[C@@H]1O)OCc1cc(F)cc(C#N)c1
unitsText: µM
censoringQualifier: >
CC50 at 3 days: 43.2

====

testSummary: RSV HEP2-CC50-384-V2 (per Ex. V)
Format: cell-based
experimentalParameters: human
recordedEndpoint: CC50 at 3 days (µM)

compound: CCCCCCCCCCCCCCCCCCOCC(COc1cc(F)cc(C#N)c1)COP(=O)(O)OC[C@@]1(C#N)O[C@@H](c2ccc3c(N)ncnn23)[C@H](O)[C@@H]1O (stereo partly shown)
recordedEndpoint: CC50 at 3 days
censoringQualifier: >
measuredValue: 30.3

compound: CCCCCCCCCCCCCCCCCCOC[C@H](COP(=O)(O)OC[C@@]1(C#N)O[C@@H](c2ccc3c(N)ncnn23)[C@H](O)[C@@H]1O)OCc1cccc(C#N)n1
recordedEndpoint: CC50 at 3 days
censoringQualifier: =
measuredValue: 42.8

compound: CCCCCCCCCCCCCCCC[C@H](COP(=O)(O)OC[C@@]1(C#N)O[C@@H](c2ccc3c(N)ncnn23)[C@H](O)[C@@H]1O)OCc1cc(F)cc(C#N)c1
recordedEndpoint: CC50 at 3 days
censoringQualifier: =
measuredValue: 34.6

compound: CCCCCCCCCCCCCCCCCCOC[C@H](COP(=O)(O)OC[C@@]1(C#N)O[C@@H](c2ccc3c(N)ncnn23)[C@H](O)[C@@H]1O)Oc1cccc(C#N)n1
recordedEndpoint: CC50 at 3 days
censoringQualifier: =
measuredValue: 39.7
